System: Streptococcus faecium MD
Assay: MIC, in vitro agar dilution method
Assay type: cell-based
Details: Enterococcus faecium; S.f., Streptococcus faecium MD; agar dilution; read-out: MIC
measurement-name: MIC (µg/mL)
API: value field is a number in µg/mL; no unit string.

Would you please look over these solved cases?
[[record]]
compound = "CO/N=C(\\C(=O)N[C@@H]1C(=O)N2C(C(=O)[O-])=C(/C=C/C[N+]3(C)CC[C@@H](O)[C@H](O)C3)CS[C@H]12)c1csc(N)n1 (relative stereo)"
measurement_name = "MIC"
assay_value = 50

[[record]]
compound = "CO/N=C(\\C(=O)N[C@@H]1C(=O)N2C(C(=O)[O-])=C(/C=C/C[N+]3(C)CCCCC3CO)CS[C@H]12)c1csc(N)n1 (stereo partly drawn)"
measurement_name = "MIC"
assay_value = 25

[[record]]
compound = "CO/N=C(\\C(=O)N[C@@H]1C(=O)N2C(C(=O)[O-])=C(/C=C/C[N+](C)(CCO)CCO)CS[C@H]12)c1csc(N)n1"
measurement_name = "MIC"
assay_value = 50

[[record]]
compound = "CO/N=C(\\C(=O)N[C@@H]1C(=O)N2C(C(=O)[O-])=C(/C=C/C[N+]3(C)C[C@H](O)C[C@H]3CO)CS[C@H]12)c1csc(N)n1 (stereo partly drawn)"
measurement_name = "MIC"
assay_value = 50

[[record]]
compound = "CO/N=C(\\C(=O)N[C@@H]1C(=O)N2C(C(=O)[O-])=C(/C=C/C[N+]3(C)CCC(O)CC3)CS[C@H]12)c1csc(N)n1 (stereo partly drawn)"
measurement_name = "MIC"
assay_value = 50


Form: compound = "CO/N=C(\C(=O)N[C@@H]1C(=O)N2C(C(=O)[O-])=C(/C=C/C[N+]3(C)C[C@H](O)[C@@H](O)C3)CS[C@H]12)c1csc(N)n1" ; MIC = 50

Notebook: CO/N=C(\C(=O)N[C@@H]1C(=O)N2C(C(=O)[O-])=C(/C=C/C[N+]3(C)CC[C@H](O)[C@H](O)C3)CS[C@H]12)c1csc(N)n1 (relative stereo) , MIC read as 50

Reported MIC for CON=C(C(=O)NC1C(=O)N2C(C(=O)[O-])=C(C=CC[N+]3(C)C4CCC3CC(O)C4)CSC12)c1csc(N)n1 (stereo not drawn) was 50

Measured MIC of CO/N=C(\C(=O)N[C@@H]1C(=O)N2C(C(=O)[O-])=C(/C=C/C[N+]3(C)C[C@@H](O)[C@@H](O)C3)CS[C@H]12)c1csc(N)n1 (stereo partly drawn) : 50

* * *

System: Streptococcus pyogenes A 77
Assay: MIC, in vitro agar dilution method
Type: cell-based
Settings: A77; S.p.2, Streptococcus pyogenes A 77; agar dilution; read-out: MIC
measurement-name: MIC (µg/mL)
Respond numerically; units are µg/mL and should not be typed.

[[record]]
compound = "CON=C(C(=O)NC1C(=O)N2C(C(=O)[O-])=C(C=CC[N+]3(C)C4CCC3CC(O)C4)CSC12)c1csc(N)n1 (stereo not drawn)"
unit_label = "µg/mL"
assay_value = 0.013

[[record]]
compound = "CO/N=C(\\C(=O)N[C@@H]1C(=O)N2C(C(=O)[O-])=C(/C=C/C[N+]3(C)CCC(O)CC3)CS[C@H]12)c1csc(N)n1 (stereo partly drawn)"
unit_label = "µg/mL"
assay_value = 0.013

[[record]]
compound = "CO/N=C(\\C(=O)N[C@@H]1C(=O)N2C(C(=O)[O-])=C(/C=C/C[N+]3(C)C[C@@H](O)[C@@H](O)C3)CS[C@H]12)c1csc(N)n1 (stereo partly drawn)"
unit_label = "µg/mL"
assay_value = 0.013


Moving on to another compound below.
Tested on Streptococcus pyogenes A 77: CO/N=C(\C(=O)N[C@@H]1C(=O)N2C(C(=O)[O-])=C(/C=C/C[N+]3(C)CC[C@@H](O)[C@H](O)C3)CS[C@H]12)c1csc(N)n1 (relative stereo) . Observed MIC: 0.013

* * *

System: Pseudomonas aeruginosa 1771 M
Assay: MIC, in vitro agar dilution method
Format: cell-based
Conditions: P.a.4, Pseudomonas aeruginosa 1771 M; agar dilution; read-out: MIC
Method: The MICs of the new cephalosporins of the present invention against Gram-positive and Gram-negative bacteria were determined by an in vitro agar dilution method. For comparisons, the MIC values of ceftazidime are also listed. In vitro antimicrobial activity of the cephalosporins (l) (MIC: P.a.4, Pseudomonas aeruginosa 1771 M;
MIC overview
Enter your answer as a number in µg/mL; do not include the unit.

Solved entries (count: 5):
[[record]]
molecule = "CO/N=C(\\C(=O)N[C@@H]1C(=O)N2C(C(=O)[O-])=C(/C=C/C[N+](C)(CCO)CCO)CS[C@H]12)c1csc(N)n1"
assay_value = 0.098

[[record]]
molecule = "CO/N=C(\\C(=O)N[C@@H]1C(=O)N2C(C(=O)[O-])=C(/C=C/C[N+]3(C)C[C@H](O)[C@@H](O)C3)CS[C@H]12)c1csc(N)n1"
assay_value = 0.098

[[record]]
molecule = "CO/N=C(\\C(=O)N[C@@H]1C(=O)N2C(C(=O)[O-])=C(/C=C/C[N+]3(C)CC[C@H](O)[C@H](O)C3)CS[C@H]12)c1csc(N)n1 (relative stereo)"
assay_value = 0.2

[[record]]
molecule = "CO/N=C(\\C(=O)N[C@@H]1C(=O)N2C(C(=O)[O-])=C(/C=C/C[N+]3(C)C[C@@H](O)[C@@H](O)C3)CS[C@H]12)c1csc(N)n1 (stereo partly drawn)"
assay_value = 0.098

[[record]]
molecule = "CO/N=C(\\C(=O)N[C@@H]1C(=O)N2C(C(=O)[O-])=C(/C=C/C[N+]3(C)CCC(O)CC3)CS[C@H]12)c1csc(N)n1 (stereo partly drawn)"
assay_value = 0.2


Documented MIC of CO/N=C(\C(=O)N[C@@H]1C(=O)N2C(C(=O)[O-])=C(/C=C/C[N+]3(C)C[C@H](O)C[C@H]3CO)CS[C@H]12)c1csc(N)n1 (stereo partly drawn) : 0.2

* * *

Recorded MIC values (Escherichia coli 1507 E) are given below.
All answers are understood in mg/L, so give the number only.

[[record]]
compound = "CC(C)(O/N=C(\\C(=O)N[C@@H]1C(=O)N2C(C(=O)[O-])=C(C[n+]3ccccc3)CS[C@H]12)c1csc(N)n1)C(=O)O [Ceftazidime, ceftazidime, reference compound]"
measurement_name = "MIC"
assay_value = 0.2

[[record]]
compound = "CON=C(C(=O)NC1C(=O)N2C(C(=O)[O-])=C(C=CC[N+]3(C)C4CCC3CC(O)C4)CSC12)c1csc(N)n1 (stereo not shown) [1-i]"
measurement_name = "MIC"
assay_value = 0.098

[[record]]
compound = "CO/N=C(\\C(=O)N[C@@H]1C(=O)N2C(C(=O)[O-])=C(/C=C/C[N+](C)(CCO)CCO)CS[C@H]12)c1csc(N)n1 [1-d]"
measurement_name = "MIC"
assay_value = 0.098

[[record]]
compound = "CO/N=C(\\C(=O)N[C@@H]1C(=O)N2C(C(=O)[O-])=C(/C=C/C[N+]3(C)C[C@H](O)C[C@H]3CO)CS[C@H]12)c1csc(N)n1 (stereo partly shown) [1-c]"
measurement_name = "MIC"
assay_value = 0.049

[[record]]
compound = "CO/N=C(\\C(=O)N[C@@H]1C(=O)N2C(C(=O)[O-])=C(/C=C/C[N+]3(C)CCCCC3CO)CS[C@H]12)c1csc(N)n1 (stereo partly shown) [1-h]"
measurement_name = "MIC"
assay_value = 0.049


Per the records, this compound ( CO/N=C(\C(=O)N[C@@H]1C(=O)N2C(C(=O)[O-])=C(/C=C/C[N+]3(C)C[C@H](O)[C@@H](O)C3)CS[C@H]12)c1csc(N)n1 [1-b] ) has MIC equal to 0.049

MIC measured on CO/N=C(\C(=O)N[C@@H]1C(=O)N2C(C(=O)[O-])=C(/C=C/C[N+]3(C)CCC(O)CC3)CS[C@H]12)c1csc(N)n1 (stereo partly shown) [1-g] = 0.098

Field MIC (entry CO/N=C(\C(=O)N[C@@H]1C(=O)N2C(C(=O)[O-])=C(/C=C/C[N+]3(C)CC[C@@H](O)[C@H](O)C3)CS[C@H]12)c1csc(N)n1 (relative stereo) [1-f] ) reads 0.049

Measured MIC of CO/N=C(\C(=O)N[C@@H]1C(=O)N2C(C(=O)[O-])=C(/C=C/C[N+]3(C)CC[C@H](O)[C@H](O)C3)CS[C@H]12)c1csc(N)n1 (relative stereo) [1-e] : 0.049

# MIC (compound: CO/N=C(\C(=O)N[C@@H]1C(=O)N2C(C(=O)[O-])=C(/C=C/C[N+]3(C)C[C@@H](O)[C@@H](O)C3)CS[C@H]12)c1csc(N)n1 (stereo partly shown) [1-a] ) is 0.049

* * *

Test system: Pseudomonas aeruginosa 1771 M
Experiment: MIC, in vitro agar dilution method
Assay type: cell-based
Conditions: P.a.4, Pseudomonas aeruginosa 1771 M; agar dilution; read-out: MIC
Documented MIC across a set of compounds
Report as a plain number; the unit µg/mL is understood.

Solved entries:
[[record]]
compound = "CO/N=C(\\C(=O)N[C@@H]1C(=O)N2C(C(=O)[O-])=C(/C=C/C[N+]3(C)CC[C@@H](O)[C@H](O)C3)CS[C@H]12)c1csc(N)n1 (relative stereo) [1-f]"
target_system = "Pseudomonas aeruginosa 1771 M"
measurement_name = "MIC"
assay_value = 0.098

[[record]]
compound = "CON=C(C(=O)NC1C(=O)N2C(C(=O)[O-])=C(C=CC[N+]3(C)C4CCC3CC(O)C4)CSC12)c1csc(N)n1 (stereo not drawn) [1-i]"
target_system = "Pseudomonas aeruginosa 1771 M"
measurement_name = "MIC"
assay_value = 0.2


Let us move to another entry and its MIC.
The compound identified as CO/N=C(\C(=O)N[C@@H]1C(=O)N2C(C(=O)[O-])=C(/C=C/C[N+]3(C)CCCCC3CO)CS[C@H]12)c1csc(N)n1 (stereo partly drawn) [1-h] registered its MIC at 0.098
